pIC50: −log10 of the molar value.
A short record of pIC50 observed with BMX (Homo sapiens (Human), UniProt P51813) follows.
Sequence (P51813 whole entry): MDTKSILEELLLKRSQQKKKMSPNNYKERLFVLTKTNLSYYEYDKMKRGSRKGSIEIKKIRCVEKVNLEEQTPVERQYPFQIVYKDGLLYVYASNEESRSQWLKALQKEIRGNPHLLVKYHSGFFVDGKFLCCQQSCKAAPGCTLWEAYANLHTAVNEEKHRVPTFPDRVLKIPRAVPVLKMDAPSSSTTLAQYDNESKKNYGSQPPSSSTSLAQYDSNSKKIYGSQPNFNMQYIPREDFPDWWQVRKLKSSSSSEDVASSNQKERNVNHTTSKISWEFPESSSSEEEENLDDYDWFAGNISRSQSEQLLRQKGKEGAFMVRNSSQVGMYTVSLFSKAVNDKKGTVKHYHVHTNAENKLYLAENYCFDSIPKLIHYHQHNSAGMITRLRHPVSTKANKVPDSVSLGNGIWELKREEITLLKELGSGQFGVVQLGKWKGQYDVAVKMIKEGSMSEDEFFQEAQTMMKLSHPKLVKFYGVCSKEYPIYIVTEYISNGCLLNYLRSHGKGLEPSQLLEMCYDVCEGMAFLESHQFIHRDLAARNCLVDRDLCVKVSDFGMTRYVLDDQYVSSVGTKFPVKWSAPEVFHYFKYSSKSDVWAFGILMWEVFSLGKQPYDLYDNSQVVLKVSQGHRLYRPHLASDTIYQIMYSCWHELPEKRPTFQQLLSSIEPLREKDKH

# Compound smiles, Rel, pIC50
rows = [
    ("C=CC(=O)N1CCc2ccc(-n3c(=O)ccc4cnc5ccc(-c6ccc(COc7cccc(C(F)(F)F)c7)cc6)cc5c43)cc21", "<", 5.00),
    ("C=CC(=O)N1CCc2ccc(-n3c(=O)ccc4cnc5ccc(-c6ccc(N7CCN(C)CC7)cc6)cc5c43)cc21", "=", 6.40),
    ("C=CC(=O)Nc1cc(-n2c(=O)ccc3cnc4ccc(-c5ccc(NS(C)(=O)=O)cc5)cc4c32)ccc1C", "=", 8.10),
]
